Where do the numbers come from? From patent US20120178701A1.

- TARGET: T1, human recombinant melanocortin-3 receptor (human, UniProt P41968 1-323)
- T1 construct: whole, on cells; Membrane homogenates of HEK-293 cells expressing the receptor; also called hMC3-R; MC3-R
- T1 sequence (P41968 whole entry): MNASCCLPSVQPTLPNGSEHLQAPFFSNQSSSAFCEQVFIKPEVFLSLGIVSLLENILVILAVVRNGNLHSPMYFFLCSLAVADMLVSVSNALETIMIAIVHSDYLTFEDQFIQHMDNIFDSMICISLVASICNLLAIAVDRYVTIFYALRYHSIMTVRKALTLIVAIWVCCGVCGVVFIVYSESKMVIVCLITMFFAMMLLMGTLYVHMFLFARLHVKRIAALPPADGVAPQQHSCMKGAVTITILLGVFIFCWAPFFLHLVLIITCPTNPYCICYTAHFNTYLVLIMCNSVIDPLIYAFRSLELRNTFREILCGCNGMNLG
- TEST: competitive binding vs Eu-labeled NDP-α-MSH
Bridge positions count the residues as written; N and C are the ends. Square brackets hold non-standard residues; d marks the D form.
EXPERIMENTAL ENDPOINT: pKi
// returns pKi (minus log10 of molar concentration), number only

1) Ac-RDH[dF]RWK-NH2 (lactam 2-7, also called peptide No. 1) [Ac-Arg-cyclo(Asp-His-D-Phe-Arg-Trp-Lys)-NH2]; 6.99

Shifting focus to the binder that follows.
Q: Which pKi reading was recorded for the binder Ac-RDV[dF]RWK-NH2 (lactam 2-7, also called peptide No. 16) [Ac-Arg-cyclo(Asp-Val-D-Phe-Arg-Trp-Lys)-NH2] ?
Result: 5.98
